Test system: HI650 (Lung Adenocarcinoma)
test_name: Cell viability analysis, lung cancer HI650
Format: cell-based, human
condition_set: Homo sapiens, NCI-H1650; drug 10 μM, 72 hours, WST-1, OD450 nm; read-out: cell viability (survival rate), H1650
endpoint: viability at 10 µM (%)
Field: numeric (%). Do not append units.

Report viability at 10 µM for COC(=O)C1=CO[C@@H](O[C@@H]2O[C@H](CO)[C@@H](O)[C@H](O)[C@H]2O)[C@@H]2C(CO)=CC[C@H]12 [Geniposide] tested on HI650 (Lung Adenocarcinoma).
71.2

Report viability at 10 µM for CCC1(C)CC(=O)NC(=O)C1 [Bemegride] tested on HI650 (Lung Adenocarcinoma).
69.9

* * *

Tested on: A549 (Lung Adenocarcinoma)
test_name: Cell viability analysis, lung cancer A549
Type: cell-based, human
condition_set: drug 10 μM, 72 hours, WST-1, OD450 nm
Entries and their cell viability (survival rate), A549 values follow.

Sample answers from the record:
{"compound": "CN(C)CCCN1c2ccccc2CCc2ccc(Cl)cc21.Cl [Clomipramine HCl (Anafranil)]", "cell viability (survival rate), A549": 69.1}
{"compound": "CCCCCCCCCCCCCCCC[N+](C)(C)C.[Br-] [Cetrimonium Bromide]", "cell viability (survival rate), A549": 25.0}
{"compound": "C[C@@H]1[C@H](O)[C@@H](C)/C=C/C=C/CC/C=C/C=C/C=C/C=C/C(O[C@H]2O[C@H](C)[C@@H](O)[C@H](N)[C@@H]2O)CC2O[C@](O)(CC(O)C(O)CCC(O)CC(O)CC(O)CC(=O)O[C@H]1C)CC(O)C2C(=O)O (stereo partly drawn) [Nystatin (Mycostatin), Nystatin]", "cell viability (survival rate), A549": 37.1}

Looking for the measured cell viability (survival rate), A549 of CN(C/C=C/C#CC(C)(C)C)Cc1cccc2ccccc12.Cl [Terbinafine HCl (Lamisil)] , can you help?
52.3

Looking for the measured cell viability (survival rate), A549 of CC1(C)S[C@@H]2[C@H](NC(=O)[C@H](N)c3ccc(O)cc3)C(=O)N2[C@H]1C(=O)[O-].[Na+] [Amoxicillin sodium (Amox), Amoxicillin sodium] , can you help?
60.6

Looking for the measured cell viability (survival rate), A549 of O=C([O-])C(O)[C@H](O)[C@@H](O)[C@H](O)[C@H](O)CO.O=C([O-])C(O)[C@H](O)[C@@H](O)[C@H](O)[C@H](O)CO.[Ca+2] (stereo partly drawn) [Calcium Gluceptate] , can you help?
24.91

* * *

Test system: A375 (Amelanotic Melanoma)
test_name: Cell viability analysis, skin cancer A375
Assay type: cell-based, human
condition_set: Homo sapiens, A-375, 72 h, read-out: cell viability (survival rate), A375, drug 10 μM, 72 hours, WST-1, OD450 nm
endpoint: viability at 10 µM (%)
Field: numeric (%). Do not append units.

Looking for the measured viability at 10 µM of Oc1ccc(C=Cc2cc(O)cc(O)c2)cc1 [Resveratrol] , can you help?
53

* * *

Test system: HL-60 (Acute Promyelocytic Leukemia)
test_name: Cell viability analysis, leukemia HL-60
Format: cell-based, human
condition_set: Homo sapiens, HL-60, 72 h, drug 10 μM, 72 hours, WST-1, OD450 nm; read-out: cell viability (survival rate), HL-60
Structures can show the parent of a compound that is named as a salt.
Entries and their viability at 10 µM values follow.
Answer format: value, then unit.

Sample answers from the record:
{"compound": "CN(C)CCC=C1c2ccccc2CCc2ccccc21 [Amitriptyline HCl]", "viability at 10 µM": "81.4%"}
{"compound": "Cc1c(OCC(F)(F)F)ccnc1C[S+]([O-])c1nc2ccccc2[nH]1 (stereo not shown)", "viability at 10 µM": "78.6%"}

Looking for the measured viability at 10 µM of CC(C)[C@H](N)C(=O)OCCOCn1cnc2c(=O)[nH]c(N)nc21 [Valaciclovir HCl] , can you help?
103%

Looking for the measured viability at 10 µM of CC(C)/N=c1\cc2n(-c3ccc(Cl)cc3)c3ccccc3nc-2cc1Nc1ccc(Cl)cc1 , can you help?
85%

* * *

System: HL-60 (Acute Promyelocytic Leukemia)
test_name: Cell viability analysis, leukemia HL-60
Format: cell-based, human
condition_set: Homo sapiens, HL-60, 72 h, drug 10 μM, 72 hours, WST-1, OD450 nm; read-out: cell viability (survival rate), HL-60
One threshold, 80%, splits the recorded viability at 10 µM values: lower ones are Met, equal or higher ones are Not met.

Sample answers from the record:
{"compound": "Nc1ccn(C[C@@H](CO)OCP(=O)(O)O)c(=O)n1 [Cidofovir (Vistide), Cidofovir]", "tested_system": "HL-60 (Acute Promyelocytic Leukemia)", "assigned_label": "Not met"}
{"compound": "COc1c(C)c2c(c(O)c1C/C=C(\\C)CCC(=O)O)C(=O)OC2 [Mycophenolic (Mycophenolate), Mycophenolic]", "tested_system": "HL-60 (Acute Promyelocytic Leukemia)", "assigned_label": "Met"}
{"compound": "CC[C@H]1OC(=O)C[C@@H](O)[C@H](C)[C@@H](O[C@@H]2O[C@H](C)[C@@H](O)[C@H](N(C)C)[C@H]2O)[C@@H](CCN2C[C@H](C)C[C@H](C)C2)C[C@@H](C)C(=O)/C=C/C(C)=C/[C@@H]1CO[C@@H]1O[C@H](C)[C@@H](O)[C@@H](OC)[C@H]1OC", "tested_system": "HL-60 (Acute Promyelocytic Leukemia)", "assigned_label": "Met"}
{"compound": "Cc1cc(-n2c(=O)[nH]c(=O)n(C)c2=O)ccc1Oc1ccc(SC(F)(F)F)cc1", "tested_system": "HL-60 (Acute Promyelocytic Leukemia)", "assigned_label": "Met"}
{"compound": "COC(=O)N/N=C/c1c[n+]([O-])c2ccccc2[n+]1[O-]", "tested_system": "HL-60 (Acute Promyelocytic Leukemia)", "assigned_label": "Not met"}
{"compound": "CCCc1cc(C(N)=S)ccn1 [Protionamide (Prothionamide), Protionamide]", "tested_system": "HL-60 (Acute Promyelocytic Leukemia)", "assigned_label": "Not met"}

Okay, next one:
Given the entry NC(=O)c1cnccn1 [Pyrazinamide] , would its reported viability at 10 µM be below 80%?
Not met

* * *

System: HeLa (Cervix Adenocarcinoma)
test_name: Cell viability analysis, cervical cancer HeLa
Type: cell-based, human
condition_set: drug 10 μM, 72 hours, WST-1, OD450 nm
One threshold, 60, splits the recorded cell viability (survival rate), HeLa values: lower ones are T, equal or higher ones are F.

{"compound": "O=C([O-])C(O)[C@H](O)[C@@H](O)[C@H](O)[C@H](O)CO.O=C([O-])C(O)[C@H](O)[C@@H](O)[C@H](O)[C@H](O)CO.[Ca+2] (stereo partly drawn) [Calcium Gluceptate]", "tested_system": "HeLa (Cervix Adenocarcinoma)", "assigned_label": "T"}
{"compound": "CN(C/C=C/C#CC(C)(C)C)Cc1cccc2ccccc12.Cl [Terbinafine HCl (Lamisil)]", "tested_system": "HeLa (Cervix Adenocarcinoma)", "assigned_label": "F"}
{"compound": "CCCCCCCCCCCCCCCC[N+](C)(C)C.[Br-] [Cetrimonium Bromide]", "tested_system": "HeLa (Cervix Adenocarcinoma)", "assigned_label": "T"}
{"compound": "CC1(C)S[C@@H]2[C@H](NC(=O)[C@H](N)c3ccc(O)cc3)C(=O)N2[C@H]1C(=O)[O-].[Na+] [Amoxicillin sodium (Amox), Amoxicillin sodium]", "tested_system": "HeLa (Cervix Adenocarcinoma)", "assigned_label": "F"}

Okay, next one:
Given the entry CN(C)CCCN1c2ccccc2CCc2ccc(Cl)cc21.Cl [Clomipramine HCl (Anafranil)] , would its reported cell viability (survival rate), HeLa be below 60?
F

* * *

Entries and their viability at 10 µM values follow.
Test system: HCT116 (p53+) (Colorectal Carcinoma)
test_name: cells
condition_set: Homo sapiens, HCT-116, 72 h, read-out: cell viability (survival rate), HCT116
Counter-ions that a name gives are not always drawn.
Field: numeric (%). Do not append units.

Sample answers from the record:
{"compound": "COC(=O)C1=CO[C@@H](O)[C@@H]2C(CO)=CC[C@H]12", "endpoint": "viability at 10 µM", "experimental_value": 82.7}
{"compound": "O=c1cc[nH]c(=O)[nH]1", "endpoint": "viability at 10 µM", "experimental_value": 94.3}
{"compound": "CCCCCCCCCCCCCCCC[N+](C)(C)CCN(Cc1ccc(OC)cc1)c1ncccn1 [Thonzonium Bromide]", "endpoint": "viability at 10 µM", "experimental_value": 32.9}
{"compound": "CCC1(C)CC(=O)NC(=O)C1 [Bemegride]", "endpoint": "viability at 10 µM", "experimental_value": 47.7}

Report viability at 10 µM for O=C([O-])c1ccccc1O.[Na+] [Sodium salicylate] tested on HCT116 (p53+) (Colorectal Carcinoma).
73.5

Report viability at 10 µM for CCCCCCCCCCCCCCCC[n+]1ccccc1 [Cetylpyridinium Chloride] tested on HCT116 (p53+) (Colorectal Carcinoma).
33.6

Report viability at 10 µM for NC[C@H]1O[C@H](O[C@H]2[C@H](O)[C@@H](O[C@H]3O[C@H](CO)[C@@H](O)[C@H](N)[C@H]3O)[C@H](N)C[C@@H]2N)[C@H](N)[C@@H](O)[C@@H]1O tested on HCT116 (p53+) (Colorectal Carcinoma).
73.6

Report viability at 10 µM for CCCCC(CC)CNC(=N)NC(=N)NCCCCCCNC(=N)NC(=N)NCC(CC)CCCC (stereo not shown) [Alexidine HCl] tested on HCT116 (p53+) (Colorectal Carcinoma).
65.8

Report viability at 10 µM for Cc1cc(O)ccc1Cl tested on HCT116 (p53+) (Colorectal Carcinoma).
61.7

Report viability at 10 µM for CC(C)(O/N=C(\C(=O)N[C@@H]1C(=O)N2C(C(=O)[O-])=C(C[n+]3ccccc3)CS[C@H]12)c1csc(N)n1)C(=O)O [Ceftazidime Pentahydrate] tested on HCT116 (p53+) (Colorectal Carcinoma).
89.5

Report viability at 10 µM for CC(C)(C)CC(C)(C)c1ccc(O)c(Cc2ccc(Cl)cc2Cl)c1 tested on HCT116 (p53+) (Colorectal Carcinoma).
61

These data points were gathered from patent US10105357B2.
